- TARGET_SYSTEM: RPE65 isomerohydrolase (Bos taurus, UniProt Q28175)
- Construct: Bovine RPE microsomes were used as a source of the RPE65 protein; from tissue; host or cells: bovine RPE microsomes
- Sequence (Q28175 whole entry): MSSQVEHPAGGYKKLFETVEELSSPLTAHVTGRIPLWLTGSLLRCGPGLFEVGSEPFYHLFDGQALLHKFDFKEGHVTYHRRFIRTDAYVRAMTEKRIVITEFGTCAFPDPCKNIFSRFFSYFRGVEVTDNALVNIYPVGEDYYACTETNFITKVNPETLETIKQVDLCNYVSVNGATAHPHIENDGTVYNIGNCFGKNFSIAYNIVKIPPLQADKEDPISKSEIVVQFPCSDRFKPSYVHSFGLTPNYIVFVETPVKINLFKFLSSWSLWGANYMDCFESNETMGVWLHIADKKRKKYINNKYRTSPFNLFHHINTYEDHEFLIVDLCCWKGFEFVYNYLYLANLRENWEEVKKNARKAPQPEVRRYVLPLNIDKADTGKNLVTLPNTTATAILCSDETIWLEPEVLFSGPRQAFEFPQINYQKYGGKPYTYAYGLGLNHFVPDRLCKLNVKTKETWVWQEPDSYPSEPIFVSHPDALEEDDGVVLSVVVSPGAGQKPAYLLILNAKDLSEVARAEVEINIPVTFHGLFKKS
- ASSAY_COMMENT: In vitro RPE65 isomerohydrolase assay with bovine RPE microsomes (Example 3)
- Format: biochemical
- CONDITION_PARAMETERS: apparent IC50; bovine RPE microsomes, all-trans-[3H] retinol substrate (Table 1); read-out: IC50 Values for the Inhibition of RPE65 Isomerohydrolase Reaction
pIC50: −log10 of the molar value.
PARAMETER_MEASURED: pIC50

>>> df
                                   compound  reading
0  CC(C)(C)/[N+]([O-])=C/c1ccc(C(F)(F)F)cc1 [Compound 3, 4-Trifluoromethylphenyl t-butyl nitrone]     4.22
1  CC(C)(C)/[N+]([O-])=C/c1ccccc1F [Compound 7, 2-Fluorophenyl t-butyl nitrone]     2.89
2  CC(C)(C)/[N+]([O-])=C/c1cc(F)cc(F)c1 [Compound 9, 3,5-Difluorophenyl t-butyl nitrone]     3.30

a. COc1ccc(/C=[N+](\[O-])C(C)(C)C)cc1 [Compound 5, 4-Methoxyphenyl t-butyl nitrone]
b. CC(C)(C)/[N+]([O-])=C/c1ccc(F)c(F)c1 [Compound 10, 3,4-Difluorophenyl t-butyl nitrone]
Response body: label of entry with the larger pIC50; valid values a , b . Your answer should be the label of the entry you select.
b
(b: 4.30, a: 3.30)

* * *

- TARGET_SYSTEM: RPE65 isomerohydrolase (Rattus norvegicus)
- Sequence (O70276 1-533): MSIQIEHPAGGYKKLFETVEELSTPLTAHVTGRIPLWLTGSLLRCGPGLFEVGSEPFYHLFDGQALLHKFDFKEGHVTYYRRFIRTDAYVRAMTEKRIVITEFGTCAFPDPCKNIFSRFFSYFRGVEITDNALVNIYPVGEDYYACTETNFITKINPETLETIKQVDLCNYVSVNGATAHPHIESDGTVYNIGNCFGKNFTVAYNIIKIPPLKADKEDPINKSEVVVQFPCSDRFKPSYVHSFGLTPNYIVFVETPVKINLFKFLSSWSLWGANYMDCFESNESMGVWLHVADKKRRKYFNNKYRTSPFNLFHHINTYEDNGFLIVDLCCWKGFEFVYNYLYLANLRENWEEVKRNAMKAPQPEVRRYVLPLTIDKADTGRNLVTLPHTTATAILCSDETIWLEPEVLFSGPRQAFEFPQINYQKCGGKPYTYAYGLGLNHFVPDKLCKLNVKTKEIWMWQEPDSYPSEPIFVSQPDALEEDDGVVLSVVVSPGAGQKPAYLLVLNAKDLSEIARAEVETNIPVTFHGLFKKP
PARAMETER_MEASURED: pIC50
As a rule, pIC50 stands for the negative log10 of the concentration, concentration in M.

Name the recorded pIC50 for CC(C)(C)/[N+]([O-])=C/c1ccccc1 .
4.00

* * *

- TARGET_SYSTEM: RPE65 isomerohydrolase (Bos taurus, UniProt Q28175)
- Construct: Bovine RPE microsomes were used as a source of the RPE65 protein; from tissue; host or cells: bovine RPE microsomes
- ASSAY_COMMENT: In vitro RPE65 isomerohydrolase assay with bovine RPE microsomes (Example 3)
- Format: biochemical
- CONDITION_PARAMETERS: in vitro RPE65 isomerohydrolase IC50 values repeated in Table 7; read-out: IC50
- Description: In this Example, the effect of several PBN analogs on RPE65 isomerohydrolase activity was investigated in an in vitro assay. The chemical structures of the PBN analogs utilized are described herein above. Bovine RPE microsomes were used as a source of the RPE65 protein and all-trans-[^3H] retinol was a substrate for the isomerohydrolase assay. The produced 11-cis-[^3H] retinol was quantified by normal phase HPLC with flow scintillation analyzer. […]
PARAMETER_MEASURED: IC50 (µM)

In [3]: df
Out[3]:
                         smiles_data  parameter_measured  reading
0  CC(C)(C)/[N+]([O-])=C/c1ccc(F)cc1                IC50       60

a. CC(C)(C)/[N+]([O-])=C/c1cc(F)cc(F)c1
b. CC(C)(C)/[N+]([O-])=C/c1ccc(F)c(F)c1
Response body: label of entry with the larger IC50; valid values a , b . Your answer should be the label of the entry you select.
a
